Where these numbers come from: patent US11524966B1

- TEST TARGET: USP25 (USP25-His6, Boston Biochem E-546) (Homo sapiens, UniProt Q9UHP3)
- Construct: His6; purchased Boston Biochem E-546
- Sequence (Q9UHP3 whole entry): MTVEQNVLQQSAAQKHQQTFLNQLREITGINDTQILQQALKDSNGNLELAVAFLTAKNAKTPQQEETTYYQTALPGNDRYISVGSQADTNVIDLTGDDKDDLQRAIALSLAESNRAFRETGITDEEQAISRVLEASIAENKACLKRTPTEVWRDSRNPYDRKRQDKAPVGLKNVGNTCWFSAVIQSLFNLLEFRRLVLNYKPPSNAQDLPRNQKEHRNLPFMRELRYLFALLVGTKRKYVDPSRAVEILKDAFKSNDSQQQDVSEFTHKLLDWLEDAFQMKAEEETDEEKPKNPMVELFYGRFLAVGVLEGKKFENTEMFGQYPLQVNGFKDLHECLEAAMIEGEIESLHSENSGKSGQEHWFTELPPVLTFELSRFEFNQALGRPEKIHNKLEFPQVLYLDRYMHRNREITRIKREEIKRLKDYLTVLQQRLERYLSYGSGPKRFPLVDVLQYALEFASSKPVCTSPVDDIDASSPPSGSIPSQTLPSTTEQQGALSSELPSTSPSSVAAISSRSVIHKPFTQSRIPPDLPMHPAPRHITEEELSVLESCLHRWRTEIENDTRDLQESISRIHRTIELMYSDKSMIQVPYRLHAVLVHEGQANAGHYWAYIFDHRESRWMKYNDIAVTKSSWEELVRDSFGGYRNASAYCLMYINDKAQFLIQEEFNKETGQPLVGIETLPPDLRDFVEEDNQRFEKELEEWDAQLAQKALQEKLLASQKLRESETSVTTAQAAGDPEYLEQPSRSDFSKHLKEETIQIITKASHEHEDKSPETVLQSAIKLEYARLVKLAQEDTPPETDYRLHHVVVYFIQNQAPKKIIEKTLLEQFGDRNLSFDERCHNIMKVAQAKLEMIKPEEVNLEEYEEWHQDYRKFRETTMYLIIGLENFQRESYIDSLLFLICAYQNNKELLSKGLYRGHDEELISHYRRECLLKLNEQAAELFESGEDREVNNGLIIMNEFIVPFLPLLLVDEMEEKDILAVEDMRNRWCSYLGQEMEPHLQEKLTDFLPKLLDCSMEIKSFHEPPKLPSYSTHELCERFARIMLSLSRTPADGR
- ASSAY PROCEDURE: Ubiquitin-Rhodamine 110 Assay for USP25 Activity, Example A-2
- Assay type: biochemical
- DETAILS: Ubiquitin-Rhodamine 110 assay, Example A-2; read-out: USP25 A-2 IC50 range
pIC50: −log10 of the molar value.
Reported pIC50 values for a set of compounds

>>> recorded_value("O=C(N[C@H]1COc2cc(N3CCNCC3)ccc2C1)c1cnc2c(ccn2C(F)F)c1")
"< 5.70"

Fill in: pIC50 of Cc1ccc2c(N)c(C(=O)N[C@@H]3COc4cc(N5C[C@H]6CNC[C@@H]6C5)ccc4C3)sc2n1 is ___ < 5.70

Query O=C(N[C@H]1COc2cc(N3CC4CCC(C3)N4)ccc2C1)c1cnc2c(c1)CCCN2 next 5.70 to 6.70

Now this one: Cc1cnc2c(N)c(C(=O)N[C@H]3COc4cc(N5CCNCC5)c(C#N)c(F)c4C3)sc2n1 6.70 to 7.30

Another: CO[C@H]1CN(c2cc3c(c(F)c2C#N)C[C@@H](NC(=O)c2sc4nc(C)cnc4c2N)CO3)C[C@@H]1N 6.70 to 7.30

One more compound: COC[C@H]1CN(c2ccc3c(c2)CC[C@H](NC(=O)c2sc4nc(C)ccc4c2N)C3)C[C@H]1N 5.70 to 6.70
